- assay.target: T1, TCE-9 (anti-CD3 scFv V99A; anti-TROP2 wt)
- T1 construct: scFv on the Fab heavy chain
- method: competition ELISA, TCE on captured CD3
Where no end group is shown, it is not given here.
assay.endpoint: IC50 (nM)
Number only, in nM; omit the unit.

IN: For the binder VYCGPEFDESVGCA (cysteine pairing not given here; also: biotinylated, site not given here, mask peptide for the CD3 scFv) [Peptide-73] , what IC50 is on record?
OUT: 160

Data credit: patent US20230357429A1
